Reference for the values: patent US20240174763A1

TESTED TARGET: T1, human CD73 on SK-OV-3 cells (human ovarian adenocarcinoma cells) (human, UniProt P21589 27-549)
T1 construct: whole, on cells; also called human CD73 positive cells
T1 sequence (looked up): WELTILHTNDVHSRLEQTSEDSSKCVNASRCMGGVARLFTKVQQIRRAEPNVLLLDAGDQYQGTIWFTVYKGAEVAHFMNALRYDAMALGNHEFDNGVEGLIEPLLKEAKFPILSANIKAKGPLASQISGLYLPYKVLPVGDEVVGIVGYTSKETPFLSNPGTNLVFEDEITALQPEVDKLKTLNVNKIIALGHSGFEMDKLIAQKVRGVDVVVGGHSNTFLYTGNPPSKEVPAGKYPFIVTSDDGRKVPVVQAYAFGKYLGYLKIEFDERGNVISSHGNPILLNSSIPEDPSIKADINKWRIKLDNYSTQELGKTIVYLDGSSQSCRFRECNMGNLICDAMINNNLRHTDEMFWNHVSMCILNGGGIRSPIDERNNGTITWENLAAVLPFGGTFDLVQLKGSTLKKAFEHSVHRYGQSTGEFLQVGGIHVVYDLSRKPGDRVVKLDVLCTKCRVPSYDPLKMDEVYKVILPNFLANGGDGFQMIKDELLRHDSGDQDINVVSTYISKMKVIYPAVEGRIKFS
PROTOCOL: flow cytometry on SK-OV-3 cells
PROPERTY: EC50 (ng/mL)
Answer format: numeric, ng/mL implied, no suffix.

Answered cases to consult:
humanized CQ137 monoclonal antibody (137-8) (antibody, V domains shown) VH: QVQLVQSGAEVKKPGSSVKVSCKASGYSFTGYYIHWVRQAPGQGLEWMGRINPYNGATTYNQNFKDRVTITVDKSTSTAYMELSSLRSEDTAVYYCARFHYGAPDFWGQGTLVTVSS VL: DIQMTQSPSSLSASVGDRVTITCKASQDINTYLTWYQQKPGKAPKTLIYRANILVDGVPSRFSGSGSGTDFTLTISSLQPEDFATYYCLQYDQFPLTFGGGTKVEIKR = 4.87
humanized CQ137 monoclonal antibody (137-6) (antibody, V domains shown) VH: QVQLVQSGAEVKKPGSSVKVSCKASGYSFTGYYIHWVRQAPGQGLEWMGRINPYNGATTYNQNFKDRVTITVDKSTSTAYMELSSLRSEDTAVYYCARFHYGAPEYWGQGTLVTVSS VL: DIQMTQSPSSLSASVGDRVTITCKASQDINTYLTWYQQKPGKAPKTLIYRANILVDGVPSRFSGSGSGTDFTLTISSLQPEDFATYYCLQYAEFPLTFGGGTKVEIKR = 3.71

Item: humanized CQ137 monoclonal antibody (137-5) (antibody, V domains shown) VH: QVQLVQSGAEVKKPGSSVKVSCKASGYSFTGYYIHWVRQAPGQGLEWMGRINPYNGATTYNQNFKDRVTITVDKSTSTAYMELSSLRSEDTAVYYCARFHYGAADYWGQGTLVTVSS VL: DIQMTQSPSSLSASVGDRVTITCKASQDINTYLTWYQQKPGKAPKTLIYRANILVDGVPSRFSGSGSGTDFTLTISSLQPEDFATYYCLQYNEFPLTFGGGTKVEIKR | EC50: 23.4
